solubility kinetic by entry:
# SETUP_CONDITIONS: buffer; pH 7.4; 200.0 µM
VALUE_KIND: solubility kinetic

MOLECULE | VALUE_KIND | RESULT
Cc1nc(-c2ccccc2)sc1C(=O)NN | solubility kinetic | > 35 µg/mL
Cc1cccc(CC(=O)NCC2CCCCC2)c1 | solubility kinetic | > 36.8 µg/mL
Cc1cccc(Nc2ncccc2C(=O)O)c1C | solubility kinetic | > 36.3 µg/mL
O=C(COc1ccccc1Cl)NCCCNC(=O)c1ccco1 | solubility kinetic | > 50.5 µg/mL
CSc1nc2sc3c(c2c(=O)n1C)CCC3 | solubility kinetic | 2.6 µg/mL
Cc1ccc(CNc2nc3ccccc3n2C)o1 | solubility kinetic | > 36.2 µg/mL
Cc1ccc(N2CC(=O)N(c3ccc(C)cc3)CC2=O)cc1 | solubility kinetic | 8.6 µg/mL
CCc1ccc(N2C(=O)CC(=O)NC2=O)cc1 | solubility kinetic | > 34.8 µg/mL
CC(C)(C)C(=O)N1CCN(C(c2ccccc2)c2ccccc2)CC1 | solubility kinetic | 28.3 µg/mL
CCC(C)NC(=O)COC(=O)c1ccc(Cl)cc1O (stereo not drawn) | solubility kinetic | 4.7 µg/mL
CN(Cc1c(F)cccc1Cl)S(=O)(=O)c1cccs1 | solubility kinetic | < 0.7 µg/mL
CC1(c2ccccc2)NC(=O)N(CC#N)C1=O (stereo not drawn) | solubility kinetic | 34.3 µg/mL
CCOc1c(C)cc(S(=O)(=O)NCc2ccccn2)c(C)c1C | solubility kinetic | > 50.2 µg/mL

---

# SETUP_CONDITIONS: buffer; pH 7.4; 200.0 µM
solubility kinetic by entry:

MOLECULE | VALUE_QUALIFIER | solubility kinetic / µg/mL
Cc1ccc(C(=O)NCCn2ccc3ccccc32)cc1[N+](=O)[O-] | = | 3.9
COc1cc(C)c(S(=O)(=O)NCCCn2ccnc2)cc1C | = | 39.6
Fc1ccc(-c2csc(-c3ccc(C4SCCS4)cc3)n2)cc1F | < | 0.8
COc1ccc(C2(O)C(=O)Nc3ccc(C)cc32)cc1OC (stereo not given) | > | 44.9
c1ccc2c(c1)CC1(CCCC1)N=C2N1CCOCC1 | = | 35.5
O=C(Nc1ccc(N2CCCC2)cc1)c1cc2ccccc2o1 | = | 0.4
CC(=O)Nc1ccc(N2C(=O)CSC2c2ccccc2)cc1 (stereo not given) | > | 46.9
OCCN1c2ccccc2CCc2ccccc21 | = | 21.5
CCCN1CCOC(CC(=O)Nc2ccc([N+](=O)[O-])cc2)C1=O (stereo not given) | = | 38
CCCS(=O)(=O)N1CCCC(C(=O)Oc2ccc(C)c(C)c2)C1 (stereo not given) | < | 0.7
Cc1cccc(S(=O)(=O)NCCc2ccccc2)c1 | = | 35.7
O=C(O)/C=C/c1cccnc1 | > | 22.4
Cc1cc(=O)[nH]c(Nc2ccccc2C)n1 | > | 32.3
COc1ccc(-c2nc(=S)n3ccsc3n2)cc1OC | = | 4.4
CSc1ncc2c(=O)[nH]c(-c3ccccc3)nc2n1 | > | 40.5
Cc1cccc(OCC(=O)O/N=C(\N)c2ccncc2)c1 | > | 42.8
Nc1nc(Nc2ccc(Cl)cc2)c(NC=O)c(=O)[nH]1 | > | 42
CCc1c(C)sc(NC(=O)/C=C/C(=O)O)c1C(N)=O | > | 42.3
O=C(COC(=O)c1ccccc1OCc1ccc(Cl)cc1)NCC1CCCO1 (stereo not given) | > | 60.6
O=C(Nc1ccccc1)c1ccccc1NC(=O)[C@H]1CCCC[C@H]1C(=O)O | > | 55
Cn1c(O)c(C=Nc2ccc(F)cc2)c(=O)[nH]c1=O | = | 11.9
CCOC(=O)c1c(CC(C)C)csc1/N=C/C1=C(O)CCCC1=O | = | 2.3
O=C(NC(=O)c1ccccc1O)c1ccc2c(c1)CCO2 | > | 42.5
COc1cccc(NC(=O)COC(=O)C2=NN(c3ccccc3)C(=O)CC2)c1 | > | 57.2
Cc1ccc(S(=O)(=O)NCCN2CCNC2=O)cc1 | = | 38.5
O=C1CN(c2nc3nonc3nc2N2CCCCC2)CCN1 | = | 45.2
Cl.Nc1nc2nc[nH]c2c(=O)[nH]1 | = | 21.5
Cn1c(=O)c2[nH]cnc2n(C)c1=O | > | 27
Cc1nc2ccccc2c(=O)n1-c1cccc(C(F)(F)F)c1 | = | 43.6
O=C1CSC(c2ccc([N+](=O)[O-])cc2)N1c1ccccc1F (stereo not given) | > | 47.7
Oc1ccc(Cl)cc1CNc1ccccn1 | = | 6.5
CC(C)N(Cc1ccccc1)C(=O)CN1C(=O)c2ccccc2C1=O | > | 50.5
CCC(Sc1nc2ccccc2o1)C(=O)O (stereo not given) | = | 35.2
CC(NC(=O)c1ccc(F)cc1)C(=O)NC1=NCCS1 (stereo not given) | > | 44.3
COc1ccc(C(=O)ON=C2CCN(C)CC2)cc1.Cl | > | 44.8
O=C(c1cc(COc2ccc(F)cc2F)on1)N1CCSCC1 | = | 35.8
Cc1ccc(NC(=O)C2CCCC2)cc1Cl | = | 3.7
CCOc1ncccc1C(=O)Nc1ccc(F)c(Cl)c1 | = | 1
O=C(c1ccco1)N1CCN(c2ccc([N+](=O)[O-])cn2)CC1 | = | 18.3
CCC(=O)Nc1nc2ccc([N+](=O)[O-])cc2s1 | = | 0.9
CC(=O)N1c2ccccc2C2(C)C(C1(C)C)C2(Cl)Cl (stereo not given) | = | 6.1
CN(C)C(CNC(=O)c1ccco1)c1cccs1 (stereo not given) | > | 39.7
COC(=O)c1cccc(NC(=O)c2ccc[n+]([O-])c2)c1 | > | 40.8
O=[N+]([O-])c1ccc2c(c1)nc1n2CCN(CC2CCCO2)C1 (stereo not given) | = | 41.1
O=C1NC(c2ccc(Cl)cc2Cl)Oc2ccccc21 (stereo not given) | = | 0.9
C=CCOc1nc2sc(C)c(C)c2c(=O)n1-c1ccccc1 | = | 46.1
CC(=O)c1cccc(NC(=O)C2C3C=CC(C3)C2C(=O)O)c1 (stereo not given) | > | 44.9
CCOc1ccc(C(=O)NCCN2CCCCC2)c(OCC)c1 | > | 48.1
Cc1csc(NC(=O)[C@@H]2CCCN2C(=O)c2cccs2)n1 | = | 44.2
C/C(=C\c1ccccc1)CN1CCN(Cc2ccc(C)o2)C(CCO)C1 (stereo not given) | = | 42.2

---

# SETUP_CONDITIONS: buffer; pH 7.4; 200.0 µM
Respond with rule met for solubility kinetic values of 0.02 mg/mL and above, rule not met for values below.

COMPOUND | ASSIGNED_CLASS
Cc1cc(NC(=O)c2cccc(Br)c2)no1 | rule not met
Clc1ccc(NCc2cccnc2)cc1 | rule met
N#Cc1ccc(-c2cn3c(n2)SCC3)cc1 | rule met
O=Cc1ccc(C(=O)OCC(=O)NCc2ccco2)cc1 | rule met
c1cncc(-c2nc(N3CCOCC3)c3c4c(sc3n2)CCC4)c1 | rule not met
O=C(Cc1ccccc1)N/N=C/c1cccnc1 | rule met
Cc1nc2ccc(NC(=O)c3cccc(S(=O)(=O)N4CCOCC4)c3)cc2s1 | rule not met
COc1cccc(C(=O)NCCSCc2ccccc2Cl)c1 | rule not met
N#Cc1cnc(Oc2ccc(Cl)cc2)nc1N | rule not met
CC(C)CN1CCN(CC#Cc2ccccc2)CC1CCO (stereo unspecified) | rule met
COC(=O)c1ccc(CNC(=O)c2ccc3c(c2)OCCO3)cc1 | rule met
COc1cccc(NC(=O)C2CCCN(S(C)(=O)=O)C2)c1 (stereo unspecified) | rule met
Cc1cc(Cl)ccc1NC(=O)C1COc2ccccc2O1 (stereo unspecified) | rule not met
NC(=O)CSc1nc(-c2ccccc2)nc2c1CCCC2 | rule not met
Cc1cc(OCC(O)CNC(C)c2ccccc2)ccc1C(C)C.Cl (stereo unspecified) | rule met
O=S(=O)(NC1CCSc2ccccc21)c1ccccc1 (stereo unspecified) | rule not met
CC1CCN(c2ccc3nnc(CCC(=O)NC(C)C)n3n2)CC1 | rule met
O=C(NC1CCCCC1)c1ccc(-c2ccccc2)cc1 | rule not met
O=c1[nH]c(C(F)(F)F)nc2ccc3ccccc3c12 | rule met
O=C(O)c1cccnc1Sc1ccccc1Cl | rule met
CCOC(=O)c1cnc(/N=C/N(C)C)s1 | rule met
CNc1nc(N)c([N+](=O)[O-])c(NCC2CCCO2)n1 (stereo unspecified) | rule met
COc1cccc(NC(=O)N2C3CCCC2CC(NC(=O)C2CC2)C3)c1 (stereo unspecified) | rule met
Cc1ccc2c(c1)C1CN(C)CCC1N2C(=S)Nc1ccc(OC(F)F)cc1 (stereo unspecified) | rule met
O=C1CSC2(N1)C1CC3CC(C1)CC2C3 (stereo unspecified) | rule not met

---

# SETUP_CONDITIONS: buffer; pH 7.4; 200.0 µM
solubility kinetic by entry:

MOLECULE | solubility kinetic
CCC(=O)Nc1ccc(C=C(C(C)=O)C(C)=O)cc1 | > 38.9 µg/mL
O=Cc1cc([N+](=O)[O-])ccc1N1CCN(Cc2ccc3c(c2)OCO3)CC1 | 12.2 µg/mL
Cc1ccnc2nc(C(=O)OCC(=O)c3ccccc3)nn12 | > 44.4 µg/mL
O=C(Cn1cc([N+](=O)[O-])ccc1=O)Nc1ccc2c(c1)OCO2 | 15.8 µg/mL
O=[N+]([O-])c1cccc(C(O)C23CN4CN(CN(C4)C2)C3)c1 (stereo unspecified) | > 43.5 µg/mL
COc1ccc(CCC(=O)OCc2csc(CC(=O)Nc3ccc(C)cc3)n2)cc1OC | 9.9 µg/mL
CCC(NC(=O)C1CCCC1)c1ccccc1 (stereo unspecified) | > 34.7 µg/mL
CCOC(=O)c1c(O)c2ccccc2n(C)c1=O | > 37.1 µg/mL
COc1cccc2c1O/C(=N\O)C(C(=O)Nc1cccc(C)c1C)C2 (stereo unspecified) | > 51.1 µg/mL
CC(=O)c1sccc1NC(=O)c1ccccc1C(=O)O | > 43.4 µg/mL
O=C(c1cccs1)N1CCN(S(=O)(=O)c2cccs2)CC1 | 47.3 µg/mL

Hello, the source for this data is PubChem BioAssay AID1996, in case you need it.
